All figures here come from paper PMC5399635.

assay-method-text: in vitro
reported-conditions: human, Caco-2, pH 7.4, Papp A→B, Cyclosporin A

mol: C=CCN1CC[C@]23c4c5ccc(O)c4O[C@H]2[C@@H](OCCOCCOCCOCCOCCOCCOCCOC)CC[C@@]3(O)[C@H]1C5
Papp A→B at 2 h, 10 μM [×10⁻⁶ cm/s]: 1.8

----------
assay-method-text: in vitro
reported-conditions: human, Caco-2, pH 7.4, Papp B→A, Verapamil, 100 μM

mol: C=CCN1CC[C@]23c4c5ccc(O)c4O[C@H]2[C@@H](OCCOCCOCCOCCOCCOCCOCCOC)CC[C@@]3(O)[C@H]1C5
Papp B→A at 2 h, 10 μM: 1.7 ×10⁻⁶ cm/s

----------
system-name: human µ-opioid receptor (Homo sapiens, UniProt P35372)
Sequence (P35372 whole entry): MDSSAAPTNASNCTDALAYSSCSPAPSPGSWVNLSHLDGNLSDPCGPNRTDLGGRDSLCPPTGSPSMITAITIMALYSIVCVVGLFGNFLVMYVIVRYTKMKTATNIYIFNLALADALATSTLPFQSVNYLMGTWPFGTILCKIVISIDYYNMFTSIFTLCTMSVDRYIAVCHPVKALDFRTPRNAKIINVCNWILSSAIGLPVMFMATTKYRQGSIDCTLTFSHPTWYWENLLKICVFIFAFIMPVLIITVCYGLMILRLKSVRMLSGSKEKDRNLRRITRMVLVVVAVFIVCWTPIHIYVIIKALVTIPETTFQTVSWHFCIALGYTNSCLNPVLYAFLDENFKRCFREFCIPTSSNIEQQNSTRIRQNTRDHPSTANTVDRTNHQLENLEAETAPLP

compound: C[N@+]1(CC2CC2)CC[C@]23c4c5ccc(O)c4O[C@H]2C(=O)CC[C@@]3(O)[C@H]1C5 [Methylnaltrexone, Methylnaltrexone bromide]
Ki (nM): 22.1

----------
assay-method-text: in vitro
reported-conditions: human, Caco-2, pH 7.4, with elacridar, 0.5 μM, Papp A→B, Elacridar
Counter-ions that a name gives are not always drawn.

compound: C=CCN1CC[C@]23c4c5ccc(O)c4O[C@H]2C(=O)CC[C@@]3(O)[C@H]1C5 [Naloxone, naloxone hydrochloride, reference compound]
Papp A→B at 2 h, 10 μM (×10⁻⁶ cm/s): 24.8

----------
assay-method-text: in vitro
reported-conditions: human, Caco-2, pH 7.4, Papp B→A, no P-gp inhibitor, mean of 3 experiments
Where a name gives a salt, the structure may show the parent alone.
Listed here are compounds together with their documented Papp B→A at 2 h, 10 μM.
measured-attribute: Papp B→A at 2 h, 10 μM

compound: C=CCN1CC[C@]23c4c5ccc(O)c4O[C@H]2[C@@H](OCCOCCOCCOCCOCCOCCOCCOC)CC[C@@]3(O)[C@H]1C5
measured-attribute: Papp B→A at 2 h, 10 μM
result: 8.4 ×10⁻⁶ cm/s
--
compound: C=CCN1CC[C@]23c4c5ccc(O)c4O[C@H]2C(=O)CC[C@@]3(O)[C@H]1C5 [Naloxone, naloxone hydrochloride, reference compound]
measured-attribute: Papp B→A at 2 h, 10 μM
result: 25 ×10⁻⁶ cm/s

----------
assay-method-text: in vitro
reported-conditions: human, Caco-2, pH 7.4, Papp A→B, Verapamil, 100 μM

compound: C=CCN1CC[C@]23c4c5ccc(O)c4O[C@H]2[C@@H](OCCOCCOCCOCCOCCOCCOCCOC)CC[C@@]3(O)[C@H]1C5 [Naloxegol, naloxegol]
Papp A→B at 2 h, 10 μM [×10⁻⁶ cm/s]: 1.3
